Would you kindly list IC50 for each of these compounds?
target_desc: Itk (Homo sapiens)
Construct: Kinases are expressed as either kinase domains or full length constructs; made in house
Sequence (Q08881 1-620): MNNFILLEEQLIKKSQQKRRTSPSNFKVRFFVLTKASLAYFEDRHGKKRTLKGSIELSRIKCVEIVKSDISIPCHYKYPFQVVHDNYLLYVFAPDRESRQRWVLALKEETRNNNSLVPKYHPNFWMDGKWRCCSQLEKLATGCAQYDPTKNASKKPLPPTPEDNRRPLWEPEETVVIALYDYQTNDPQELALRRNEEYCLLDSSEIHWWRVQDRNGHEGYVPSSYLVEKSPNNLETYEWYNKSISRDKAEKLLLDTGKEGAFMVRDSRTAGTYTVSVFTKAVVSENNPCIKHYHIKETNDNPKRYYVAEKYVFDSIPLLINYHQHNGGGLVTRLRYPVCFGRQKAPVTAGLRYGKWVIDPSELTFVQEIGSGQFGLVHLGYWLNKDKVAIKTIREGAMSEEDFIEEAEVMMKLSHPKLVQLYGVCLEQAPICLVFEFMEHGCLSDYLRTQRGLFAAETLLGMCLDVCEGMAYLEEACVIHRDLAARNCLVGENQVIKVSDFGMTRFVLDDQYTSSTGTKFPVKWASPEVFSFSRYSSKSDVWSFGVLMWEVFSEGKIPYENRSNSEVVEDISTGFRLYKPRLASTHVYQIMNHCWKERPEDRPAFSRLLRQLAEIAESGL
measurement_description: Kinase inhibition assay (33P transfer), Itk
Type: biochemical
setup_conditions: Table 3; read-out: Itk-1

May I ask what IC50 has been recorded for Clc1ncnc(Nc2ccc(OCc3ccccc3)cc2)n1 ? > 14.4 µM

May I ask what IC50 has been recorded for COc1cc(Nc2ncnc(Nc3ccc4cn[nH]c4c3)n2)cc(OC)c1OC ? 8.9 to 11.4 µM

May I ask what IC50 has been recorded for Fc1cccc(Nc2ncnc(-c3cccs3)n2)c1 ? > 16.5 µM

May I ask what IC50 has been recorded for COc1cc(Nc2ncnc(N3c4ccc(F)cc4CCC3C)n2)cc(OC)c1OC (stereo not drawn) ? 0.94 to 5.64 µM

May I ask what IC50 has been recorded for COc1ccc(Nc2ncnc(Nc3ccc4[nH]ccc4c3)n2)cc1OC ? 9.66 to 12.4 µM

May I ask what IC50 has been recorded for NS(=O)(=O)c1ccc(Nc2ncnc(-n3c(=O)[nH]c4ccccc43)n2)cc1 ? > 11.7 µM

May I ask what IC50 has been recorded for Nc1ncnc(Nc2nc(-c3ccccc3)cs2)n1 ? > 16.6 µM

May I ask what IC50 has been recorded for COc1cc(Nc2ncnc(-n3c(NCc4ccccn4)nc4ccccc43)n2)cc(OC)c1OC ? > 9.29 µM

May I ask what IC50 has been recorded for COc1cc(Nc2ncnc(-n3c(NCCCCO)nc4ccccc43)n2)cc(OC)c1OC ? > 9.67 µM

----------
target_desc: AKT (Homo sapiens, UniProt Q9Y243)
Construct: Kinases are expressed as either kinase domains or full length constructs; made in house
Sequence (Q9Y243 whole entry, the tested form may be a part): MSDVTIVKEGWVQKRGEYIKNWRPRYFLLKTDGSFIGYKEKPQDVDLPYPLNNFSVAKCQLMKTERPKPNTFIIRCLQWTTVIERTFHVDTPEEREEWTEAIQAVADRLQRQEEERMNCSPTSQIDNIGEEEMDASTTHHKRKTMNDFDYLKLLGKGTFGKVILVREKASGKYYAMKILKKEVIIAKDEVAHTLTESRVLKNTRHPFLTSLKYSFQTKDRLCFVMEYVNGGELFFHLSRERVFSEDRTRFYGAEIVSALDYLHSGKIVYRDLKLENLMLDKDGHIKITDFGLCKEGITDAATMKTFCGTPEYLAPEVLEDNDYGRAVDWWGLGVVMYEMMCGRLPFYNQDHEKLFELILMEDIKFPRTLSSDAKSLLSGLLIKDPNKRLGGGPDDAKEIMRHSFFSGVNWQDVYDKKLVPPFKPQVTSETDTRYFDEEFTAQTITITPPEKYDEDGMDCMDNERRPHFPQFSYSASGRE
measurement_description: Kinase inhibition assay (33P transfer), AKT
Format: biochemical
setup_conditions: Table 2, kinase inhibition class; read-out: AKT3-1
pIC50: −log10 of the molar value.
result_type: pIC50

May I ask what pIC50 has been recorded for C#Cc1cccc(Nc2ncnc(-n3c(=O)[nH]c4ccccc43)n2)c1 ? < 4.86

May I ask what pIC50 has been recorded for CC(=O)c1ccc(Nc2ncnc(Nc3ccc4c(cnn4Cc4ccccc4)c3)n2)cc1 ? 5.09 to 5.26

May I ask what pIC50 has been recorded for COc1cc(C)c(Nc2ncnc(Nc3cc(-c4ccco4)n[nH]3)n2)cc1OC ? < 4.94

May I ask what pIC50 has been recorded for COc1cc(Nc2ncnc(Nc3cc(C)c(O)cc3C)n2)cc(OC)c1OC ? < 4.95

May I ask what pIC50 has been recorded for O=c1[nH]c2ccccc2n1-c1ncnc(Nc2cccc(-c3cnco3)c2)n1 ? 5.19 to 5.97

May I ask what pIC50 has been recorded for COc1cc(Nc2ncnc(-c3ccc(N(C)C)nc3)n2)cc(OC)c1OC ? < 4.93

May I ask what pIC50 has been recorded for CCOC(=O)N1CCC(Nc2ncnc(N3CCCc4cc(C)ccc43)n2)CC1 ? < 4.95

May I ask what pIC50 has been recorded for COc1cc(Nc2ncnc(N[C@@H](CO)c3ccccc3)n2)cc(OC)c1OC ? < 4.95

May I ask what pIC50 has been recorded for CN(c1cccc(Cl)c1)c1ncnc(Nc2ccc(S(C)(=O)=O)cc2)n1 ? < 4.94
